- Tested target: JAK3 (Homo sapiens)
- Construct: 5 μl of catalytic domain recombinant Kinase enzyme+Tyr peptide substrate (Invitrogen, CA)
- Sequence (P52333 822-1111 limits assumed): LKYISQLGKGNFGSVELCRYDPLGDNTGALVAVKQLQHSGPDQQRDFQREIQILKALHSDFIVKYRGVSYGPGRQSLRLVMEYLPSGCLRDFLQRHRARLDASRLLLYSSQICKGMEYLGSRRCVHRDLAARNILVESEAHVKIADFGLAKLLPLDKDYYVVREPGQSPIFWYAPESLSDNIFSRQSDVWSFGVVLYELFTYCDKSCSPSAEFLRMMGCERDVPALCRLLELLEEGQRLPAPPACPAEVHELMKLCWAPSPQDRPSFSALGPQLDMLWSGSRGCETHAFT
- Assay: Z'-LYTE kinase assay JAK3
pIC50: −log10 of the molar value.

Substance smiles	pIC50
CC(C)(C)OC(=O)N1CCC(c2ccc(Nc3cc(NCc4cccc(F)c4)c(C(N)=O)cn3)cc2)CC1	6.00 to 7.00
NC(=O)c1cnc(Nc2cccc(C3CCOCC3)c2)cc1NCc1ccccc1F	8.00 to 9.00
CCC(=O)N1CCC(c2ccc(Nc3cc(NC4CCCC4)c(C(N)=O)cn3)cc2)CC1	7.00 to 8.00
NC(=O)c1cnc(Nc2ccc(C(=O)N3CCC3)cc2)cc1NCc1cc(F)ccc1F	8.00 to 9.00
CCC(=O)N1CCC(c2ccc(Nc3cc(NCc4ccccc4)c(C(N)=O)cn3)cc2)CC1	8.00 to 9.00
NC(=O)c1cnc(Nc2cccc(C3CCOCC3)c2)cc1NCc1cccc(F)c1	8.00 to 9.00
CCC(=O)N1CCC(CNc2cc(Nc3ccc(C4CCOCC4)cc3)ncc2C(N)=O)CC1	< 6.00
CC(=O)N1CCN(c2ccc(Nc3cc(NC4CC4)c(C(N)=O)cn3)cc2)CC1	7.00 to 8.00
NC(=O)c1cnc(Nc2cccc(C3CCOCC3)c2)cc1NC1CCOCC1	6.00 to 7.00
CS(=O)(=O)Nc1ccc(Nc2cc(NCc3ccccc3)c(C(N)=O)cn2)cc1	8.00 to 9.00
N#CCOc1ccc(Nc2cc(NCc3ccccc3)c(C(N)=O)cn2)cc1	8.00 to 9.00
CC(=O)N(C)c1ccc(Nc2cc(NCc3cccc4cc[nH]c34)c(C(N)=O)cn2)cc1	7.00 to 8.00
CN(C)C(=O)c1cccc(Nc2cc(NCc3ccccc3)c(C(N)=O)cn2)c1	7.00 to 8.00
NC(=O)c1cnc(Nc2ccc(C3CCN(S(=O)(=O)C4CC4)CC3)cc2)cc1NCc1ccccc1F	7.00 to 8.00
NC(=O)c1cnc(Nc2ccc(N3CCN(c4ccccn4)CC3)cc2)cc1NCc1ccccc1	7.00 to 8.00
Cc1cc(Nc2cc(NCc3ccccc3)c(C(N)=O)cn2)ccc1C(=O)NCCO	8.00 to 9.00

====

- Tested target: JAK1 (Homo sapiens)
- Construct: 5 μl of catalytic domain recombinant Kinase enzyme+Tyr peptide substrate (Invitrogen, CA); purchased Invitrogen
- Sequence (P23458 875-1153 limits assumed): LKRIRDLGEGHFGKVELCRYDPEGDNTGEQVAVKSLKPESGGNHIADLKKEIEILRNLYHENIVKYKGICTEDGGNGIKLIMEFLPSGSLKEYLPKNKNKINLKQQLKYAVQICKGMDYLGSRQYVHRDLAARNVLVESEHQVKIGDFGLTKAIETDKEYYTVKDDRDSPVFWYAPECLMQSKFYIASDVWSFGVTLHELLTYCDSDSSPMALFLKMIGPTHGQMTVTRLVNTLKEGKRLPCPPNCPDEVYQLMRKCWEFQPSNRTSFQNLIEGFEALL
- Assay: Z'-LYTE kinase assay JAK1
- Format: biochemical
Test readout: IC50

Substance smiles	Result
CC(=O)N1CCN(c2ccc(Nc3cc(NC4CC4)c(C(N)=O)cn3)cc2)CC1	0.1 to 1 µM
CN(C)C(=O)c1ccc(Nc2cc(NCc3cccc(-c4cccnc4)c3)c(C(N)=O)cn2)cc1	0.1 to 1 µM
CN(C)C(=O)C1CCN(c2ccc(Nc3cc(NCc4ccccc4)c(C(N)=O)cn3)cc2)CC1	0.1 to 1 µM
CCC(=O)N1CCC(c2ccc(Nc3cc(N[C@H](C)C4CC4)c(C(N)=O)cn3)cc2)CC1	0.1 to 1 µM
NC(=O)c1cnc(Nc2ccc(C3CCNCC3)cc2)cc1NCc1cccc(F)c1F	0.1 to 1 µM
Cc1cc(Nc2cc(NCc3cccc4ccsc34)c(C(N)=O)cn2)ccc1C(=O)N1CCC1	0.1 to 1 µM
Cc1cc(Nc2cc(NCc3cccc4[nH]ccc34)c(C(N)=O)cn2)ccc1C(=O)N1CCC1	0.001 to 0.01 µM
COCC(=O)N1CCC[C@H](CNc2cc(Nc3ccc(C(=O)N(C)C)cc3)ncc2C(N)=O)C1	> 1 µM
CS(=O)(=O)N1CCC(c2ccc(Nc3cc(NCc4ccccc4F)c(C(N)=O)cn3)cc2)CC1	> 1 µM
NC(=O)c1cnc(Nc2ccc(C3CCOCC3)cc2)cc1NC1CCOCC1	> 1 µM
NC(=O)c1cnc(Nc2ccc(C3CN(C(=O)N4CCCC4)C3)cc2)cc1NCc1ccccc1	0.1 to 1 µM

====

- Tested target: JAK2 (Homo sapiens, UniProt O60674)
- Construct: 5 μl of catalytic domain recombinant Kinase enzyme+Tyr peptide substrate (Invitrogen, CA)
- Sequence (O60674 849-1124 limits assumed): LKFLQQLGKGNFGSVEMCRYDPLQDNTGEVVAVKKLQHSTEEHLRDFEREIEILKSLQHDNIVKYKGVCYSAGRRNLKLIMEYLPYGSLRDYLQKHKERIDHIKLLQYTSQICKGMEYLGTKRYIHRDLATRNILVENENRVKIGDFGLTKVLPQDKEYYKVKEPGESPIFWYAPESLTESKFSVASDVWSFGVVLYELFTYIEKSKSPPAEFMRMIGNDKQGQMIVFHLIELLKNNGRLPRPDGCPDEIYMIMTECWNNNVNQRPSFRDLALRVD
- Assay: Z'-LYTE kinase assay JAK2
pIC50: −log10 of the molar value.
Measured pIC50, listed per entry for reference.

Substance smiles	Tested target	pIC50
NC(=O)c1cnc(Nc2ccc(N3CCC(F)(F)CC3)cc2)cc1NC1(c2ccccc2)CC1	JAK2 (Homo sapiens, UniProt O60674)	< 6.00
NC(=O)c1cnc(Nc2cccc(N3CCCCC3)c2)cc1N[C@H](CO)c1ccccc1	JAK2 (Homo sapiens, UniProt O60674)	< 6.00
CS(=O)(=O)N1CCC(c2cccc(Nc3cc(NCc4ccccc4F)c(C(N)=O)cn3)c2)CC1	JAK2 (Homo sapiens, UniProt O60674)	6.00 to 7.00
CS(=O)(=O)c1ccc(Nc2cc(NCc3cccc4[nH]ccc34)c(C(N)=O)cn2)cc1	JAK2 (Homo sapiens, UniProt O60674)	7.00 to 8.00
COC(=O)N1CCC[C@H](CNc2cc(Nc3ccc(OC)cc3)ncc2C(N)=O)C1	JAK2 (Homo sapiens, UniProt O60674)	< 6.00
NC(=O)c1cnc(Nc2cccc(Cl)c2)cc1NCc1cncc(F)c1	JAK2 (Homo sapiens, UniProt O60674)	6.00 to 7.00
CCC(=O)N1CCC(c2ccc(Nc3cc(NCC4(c5ccccc5)CC4)c(C(N)=O)cn3)cc2)CC1	JAK2 (Homo sapiens, UniProt O60674)	< 6.00

====

- Tested target: JAK3 (Homo sapiens)
- Construct: 5 μl of catalytic domain recombinant Kinase enzyme+Tyr peptide substrate (Invitrogen, CA)
- Assay: Z'-LYTE kinase assay JAK3

Substance smiles	Tested target	IC50
NC(=O)c1cnc(Nc2ccc(N3CCCCC3)cc2)cc1NC1(c2ccccc2)CC1	JAK3 (Homo sapiens)	10 to 100 nM
Cc1cc(Nc2cc(NCc3ccccc3)c(C(N)=O)cn2)ccc1C(=O)N1CCC1	JAK3 (Homo sapiens)	1 to 10 nM
CC(C)CNc1cc(Nc2ccc(C3CCOCC3)cc2)ncc1C(N)=O	JAK3 (Homo sapiens)	100 to 1000 nM
CC(C)N1CCC(c2ccc(Nc3cc(NCc4ccccc4F)c(C(N)=O)cn3)cc2)CC1	JAK3 (Homo sapiens)	1 to 10 nM
CC(=O)N1CCN(c2ccc(Nc3cc(NC4(c5ccccc5F)CC4)c(C(N)=O)cn3)cc2)CC1	JAK3 (Homo sapiens)	1 to 10 nM

====

- Tested target: JAK2 (Homo sapiens)
- Construct: 5 μl of catalytic domain recombinant Kinase enzyme+Tyr peptide substrate (Invitrogen, CA)
- Assay: Z'-LYTE kinase assay JAK2
Measured IC50, listed per entry for reference.

Substance smiles	IC50
CC(=O)N1CCN(c2ccc(Nc3cc(N[C@H](CO)c4ccccc4)c(C(N)=O)cn3)cc2)CC1	100 to 1000 nM
NC(=O)c1cnc(Nc2cccc(C3CCOCC3)c2)cc1NCc1cccc(F)c1F	10 to 100 nM
CN(C)C(=O)COc1cccc(Nc2cc(NC3(c4ccccc4)CC3)c(C(N)=O)cn2)c1	> 1000 nM

====

- Test system: JAK1/3 signaling to STAT6 in Ramos B cells
- Assay: IL4 stimulation of JAK1/3 signaling to STAT6 in Ramos B cells (pSTAT6 Y641, FACS)
- Format: cell-based
- Details: Homo sapiens, 1.0 uM compound, read-out: IL-4/STAT6 in Ramos Percent Inhibition at 1.0 uM
Could you label it yes (1) if measured inhibition at 1 µM is 20% or higher, and no (0) otherwise?

Compound	Class label
NC(=O)c1cnc(Nc2cccc(N3CCCCC3)c2)cc1NCc1cccc(F)c1 [Example 68]	no (0)
CC(=O)N1CCN(c2ccc(Nc3cc(NCC4CCCC4)c(C(N)=O)cn3)cc2)CC1 [Example 245]	yes (1)
NC(=O)c1cnc(Nc2ccc(OCC(=O)N3CCOCC3)cc2)cc1NCc1ccccc1 [Example 80]	yes (1)
CC(=O)N1CCN(c2ccc(Nc3cc(NCc4cccc(F)c4)c(C(N)=O)cn3)cc2)CC1 [Example 229]	yes (1)
COc1cccc(Nc2cc(NCc3ccccc3)c(C(N)=O)cn2)c1 [Example 11]	no (0)
NC(=O)c1cnc(Nc2cccc(C(=O)N3CCCCC3)c2)cc1NCc1ccccc1 [Example 249]	yes (1)
NC(=O)c1cnc(Nc2ccc(N3CCOCC3)c(Cl)c2)cc1NCc1ccccc1 [Example 251]	yes (1)
COCCOc1ccc(Nc2cc(NCc3ccccc3)c(C(N)=O)cn2)cc1 [Example 432]	no (0)
CNC(=O)c1cccc(Nc2cc(NCc3ccccc3)c(C(N)=O)cn2)c1 [Example 246]	no (0)
NC(=O)c1cnc(Nc2cccc(NC(=O)N3CCOCC3)c2)cc1NCc1cccnc1 [Example 232]	no (0)
NC(=O)c1cnc(Nc2cccc(OCCN3CCCC3)c2)cc1NCc1ccccc1F [Example 72]	yes (1)
NC(=O)c1cnc(Nc2ccc(OCCN3CCOCC3)cc2)cc1NCc1ccccc1 [Example 429]	yes (1)
